These measurements were taken from paper PMC6010131.

assay: Haemolytic assay; format: cell-based, Human; details: human, human erythrocytes (suspension in PBS); 8 µM; read-out: Haemolysis (%)
Measured property: hemolysis at 1 h, 8 µM (%)
The response must be a number in % with no trailing unit.

What does the record list as hemolysis at 1 h, 8 µM for C[C@@H]1[C@H](O)[C@@H](C)/C=C/C=C/C=C/C=C/C=C/C=C/C=C/[C@H](O[C@@H]2O[C@H](C)[C@@H](O)[C@H](N)[C@@H]2O)C[C@@H]2O[C@](O)(C[C@@H](O)C[C@@H](O)[C@H](O)CC[C@@H](O)C[C@@H](O)CC(=O)O[C@H]1C)C[C@H](O)[C@H]2C(=O)O [AMP, amphotericin B] ?
2.09

---

test: Haemolytic assay; type: cell-based, Human; details: human, human erythrocytes (suspension in PBS); 32 µM; read-out: Haemolysis (%)
Measured property: hemolysis at 1 h, 32 µM
Entry format: amount then unit.

# hemolysis at 1 h, 32 µM lookup, item `C[C@@H]1[C@H](O)[C@@H](C)/C=C/C=C/C=C/C=C/C=C/C=C/C=C/[C@H](O[C@@H]2O[C@H](C)[C@@H](O)[C@H](N)[C@@H]2O)C[C@@H]2O[C@](O)(C[C@@H](O)C[C@@H](O)[C@H](O)CC[C@@H](O)C[C@@H](O)CC(=O)O[C@H]1C)C[C@H](O)[C@H]2C(=O)O`
57.8%
